FYI, the data here is from patent US9447042B2.

Target: Porcine succinate-ubiquinone reductase (mitochondrial complex II) (Sus scrofa, UniProt A5GZW8+D0VWV4+Q007T0)
Construct: from tissue; host or cells: mitochondria from porcine heart muscle
Sequence (Q007T0 29-280): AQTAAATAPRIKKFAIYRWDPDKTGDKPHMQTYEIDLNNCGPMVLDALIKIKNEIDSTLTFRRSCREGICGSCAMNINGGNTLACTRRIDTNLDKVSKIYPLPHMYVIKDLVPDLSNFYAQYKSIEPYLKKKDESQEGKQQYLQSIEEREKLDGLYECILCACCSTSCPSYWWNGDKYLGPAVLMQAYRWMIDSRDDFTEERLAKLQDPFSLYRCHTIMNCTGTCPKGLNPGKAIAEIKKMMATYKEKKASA
Sequence (D0VWV4 30-169): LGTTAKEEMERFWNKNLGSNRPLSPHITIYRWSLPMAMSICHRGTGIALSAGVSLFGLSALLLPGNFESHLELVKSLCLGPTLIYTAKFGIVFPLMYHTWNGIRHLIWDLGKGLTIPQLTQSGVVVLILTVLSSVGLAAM
Sequence (A5GZW8 57-159 limits assumed): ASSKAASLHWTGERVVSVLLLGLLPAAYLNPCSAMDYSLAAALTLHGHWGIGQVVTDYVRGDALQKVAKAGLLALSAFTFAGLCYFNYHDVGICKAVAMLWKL
Sequence (Q0QF01 43-664 partner): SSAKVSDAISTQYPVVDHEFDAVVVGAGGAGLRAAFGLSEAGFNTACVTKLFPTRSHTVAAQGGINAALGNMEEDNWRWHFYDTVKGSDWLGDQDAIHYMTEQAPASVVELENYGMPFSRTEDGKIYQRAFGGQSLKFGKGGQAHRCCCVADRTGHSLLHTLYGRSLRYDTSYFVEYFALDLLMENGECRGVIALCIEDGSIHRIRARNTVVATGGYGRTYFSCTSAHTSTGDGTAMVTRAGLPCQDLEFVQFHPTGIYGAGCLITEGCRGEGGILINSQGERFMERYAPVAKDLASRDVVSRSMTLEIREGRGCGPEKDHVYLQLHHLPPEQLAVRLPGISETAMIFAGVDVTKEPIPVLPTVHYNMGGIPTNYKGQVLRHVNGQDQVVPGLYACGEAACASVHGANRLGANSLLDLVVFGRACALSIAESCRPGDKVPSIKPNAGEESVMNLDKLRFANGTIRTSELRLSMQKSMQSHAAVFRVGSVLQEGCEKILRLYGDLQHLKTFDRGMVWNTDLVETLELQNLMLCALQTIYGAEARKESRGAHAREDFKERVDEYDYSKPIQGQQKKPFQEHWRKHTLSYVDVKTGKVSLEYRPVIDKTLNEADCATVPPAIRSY
Assay: In vitro inhibitory activity on porcine succinate-ubiquinone reductase (mitochondrial complex II)
Assay type: biochemical, pig
RESULT_TYPE: IC50 (µM)
Reply with just the number (in µM).

input: Item O=C(NCCc1ncc(C(F)(F)F)cc1Cl)c1ccccc1C(F)(F)F has what recorded IC50?
output: 90

====

Target: Porcine succinate-ubiquinone reductase (mitochondrial complex II) (Sus scrofa, UniProt A5GZW8+D0VWV4+Q007T0)
Construct: from tissue; host or cells: mitochondria from porcine heart muscle
Assay: In vitro inhibitory activity on porcine succinate-ubiquinone reductase (mitochondrial complex II)
Assay type: biochemical, pig
Conditions: at 90 μM; porcine heart muscle mitochondria
RESULT_TYPE: Porcine mitochondria inhibition at 90 μM

MOLECULE	Porcine mitochondria inhibition at 90 μM
O=C(NCCCOc1ccc(Cl)cc1Cl)c1ccccc1C(F)(F)F	16% at 90 μM
O=C(NCCc1ccc(Cl)cc1)c1ccccc1C(F)(F)F	no inhibition at 90 μM
Cc1ccc(SCCCNC(=O)c2ccccc2C(F)(F)F)c(C)c1	11% at 90 μM
CC(NC(=O)c1ccccc1C(F)(F)F)c1ccc(Cl)cc1 (stereo not shown)	no inhibition at 90 μM
Cc1ccc(CCNC(=O)c2ccccc2C(F)(F)F)c(C)c1	no inhibition at 90 μM
CC(C)(CNC(=O)c1ccccc1C(F)(F)F)c1ccc(Cl)cc1Cl	no inhibition at 90 μM

Note: attention shifts to another entry.
input: Which Porcine mitochondria inhibition at 90 μM reading was recorded for the molecule CC(C)(NC(=O)c1ccccc1C(F)(F)F)c1ccccc1 ?
output: no inhibition at 90 μM

====

List of pIC50 values.
Biological target: Ascaris suum succinate-ubiquinone reductase (mitochondrial complex II) (Ascaris suum, UniProt O44074+P92506+P92507)
Construct: from tissue; host or cells: mitochondria from adult Ascaris suum muscle
Sequence (O44074 22-282): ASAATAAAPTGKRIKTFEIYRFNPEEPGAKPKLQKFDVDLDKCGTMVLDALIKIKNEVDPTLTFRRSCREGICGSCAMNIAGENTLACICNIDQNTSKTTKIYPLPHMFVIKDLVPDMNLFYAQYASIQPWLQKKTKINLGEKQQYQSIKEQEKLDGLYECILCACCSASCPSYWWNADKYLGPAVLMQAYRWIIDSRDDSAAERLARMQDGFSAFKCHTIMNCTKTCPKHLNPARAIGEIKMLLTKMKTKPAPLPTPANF
Sequence (P92506 32-188): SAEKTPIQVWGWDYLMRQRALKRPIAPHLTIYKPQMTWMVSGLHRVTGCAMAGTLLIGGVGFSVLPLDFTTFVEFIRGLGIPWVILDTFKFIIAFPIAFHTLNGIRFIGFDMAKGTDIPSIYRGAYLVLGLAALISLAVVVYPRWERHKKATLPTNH
Sequence (P92507 26-156): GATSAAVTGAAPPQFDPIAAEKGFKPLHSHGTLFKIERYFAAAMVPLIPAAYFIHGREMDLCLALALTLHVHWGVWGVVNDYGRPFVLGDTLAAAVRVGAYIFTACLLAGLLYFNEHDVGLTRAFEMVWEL
Sequence (Q33862 19-645 partner): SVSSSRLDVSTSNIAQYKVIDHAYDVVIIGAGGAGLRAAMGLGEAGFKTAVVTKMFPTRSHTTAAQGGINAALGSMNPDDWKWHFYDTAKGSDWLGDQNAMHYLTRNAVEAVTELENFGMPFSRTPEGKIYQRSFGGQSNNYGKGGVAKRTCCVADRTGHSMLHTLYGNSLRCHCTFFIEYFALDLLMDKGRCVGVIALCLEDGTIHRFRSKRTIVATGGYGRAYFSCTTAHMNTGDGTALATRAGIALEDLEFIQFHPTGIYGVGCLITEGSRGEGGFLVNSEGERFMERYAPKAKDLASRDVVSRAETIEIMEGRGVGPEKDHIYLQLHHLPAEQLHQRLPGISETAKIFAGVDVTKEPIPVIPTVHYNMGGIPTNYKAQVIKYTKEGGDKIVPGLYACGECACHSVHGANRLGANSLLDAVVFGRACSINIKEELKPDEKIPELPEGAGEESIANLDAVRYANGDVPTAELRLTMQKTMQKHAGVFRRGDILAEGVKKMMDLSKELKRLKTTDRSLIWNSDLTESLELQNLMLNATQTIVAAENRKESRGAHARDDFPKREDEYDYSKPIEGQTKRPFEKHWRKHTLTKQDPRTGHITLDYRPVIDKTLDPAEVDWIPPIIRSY
Test: In vitro inhibitory activity on Ascaris suum succinate-ubiquinone reductase (mitochondrial complex II)
Type: biochemical
Settings: mitochondria from adult Ascaris suum muscle; read-out: Ascaris suum IC50 value (A)
Give only the number. pIC50 is defined as minus log10 of concentration in molar units.

Example entries begin here.
MOLECULE	pIC50
Cc1cc(CNC(=O)c2ccccc2C(F)(F)F)ccc1-c1ccc(OC(F)(F)F)cc1	8.42
O=C(NCCCOc1ccc(Cl)cc1Cl)c1ccccc1C(F)(F)F	8.08
CC(C)(C)c1ccc(CNC(=O)c2ccccc2C(F)(F)F)cc1	8.26
CC(NC(=O)c1ccccc1C(F)(F)F)c1ccc(Cl)cc1 (stereo not shown)	7.42
Cc1ccc(SCCCNC(=O)c2ccccc2C(F)(F)F)c(C)c1	8.22
CC(NC(=O)c1ccccc1C(F)(F)F)c1ccc(Cl)cc1Cl (stereo not shown)	7.85
O=C(NC(c1ccc(Cl)cc1)C1CC1)c1ccccc1C(F)(F)F (stereo not shown)	7.15
O=C(NCCCSc1ccc(Cl)cc1Cl)c1ccccc1C(F)(F)F	8.08
O=C(NCc1ccc(Cl)cc1Cl)c1ccccc1C(F)(F)F	7.55

Next up:
input: I have this molecule here, CC(C)(NC(=O)c1ccccc1C(F)(F)F)c1ccccc1 , and I need its recorded pIC50.
output: 6.90

====

Biological target: Ascaris suum succinate-ubiquinone reductase (mitochondrial complex II) (Ascaris suum, UniProt O44074+P92506+P92507)
Construct: from tissue; host or cells: mitochondria from adult Ascaris suum muscle
Experiment: In vitro inhibitory activity on Ascaris suum succinate-ubiquinone reductase (mitochondrial complex II)
Format: biochemical
Group membership follows IC50 per the scheme class 0: < 2 nM; class 1: ≥ 2 nM and < 4 nM; class 2: ≥ 4 nM

Worked examples, 10 compounds total:
COMPOUND	LABEL_VALUE
O=C(NCCc1ccc(Cl)cc1)c1ccccc1C(F)(F)F [Compound 1-3]	class 0
CC(Cc1ccc(Cl)c(Cl)c1)NC(=O)c1ccccc1C(F)(F)F (stereo not shown) [Compound 1-81]	class 2
CC(Cc1ccc(Cl)cc1Cl)NC(=O)c1ccccc1C(F)(F)F (stereo not shown) [Compound 1-32]	class 1
O=C(NCCc1ccc(Cl)cc1Cl)c1ccccc1C(F)(F)F [Compound 1-16]	class 1
O=C(NCCc1ncc(C(F)(F)F)cc1Cl)c1ccccc1C(F)(F)F [Compound 3-7]	class 0
O=C(NCCc1ccccc1)c1ccccc1C(F)(F)F [Compound 1-111]	class 2
CC(COc1ccc(Cl)cc1Cl)NC(=O)c1ccccc1C(F)(F)F (stereo not shown) [Compound 4-2]	class 2
CC(C)(CNC(=O)c1ccccc1C(F)(F)F)c1ccc(Cl)cc1Cl [Compound 1-112]	class 0
Cc1ccc(CCNC(=O)c2ccccc2C(F)(F)F)c(C)c1 [Compound 1-27]	class 0
O=C(NCCOc1ccc(Cl)cc1Cl)c1ccccc1C(F)(F)F [Compound 4-1]	class 1

Next item in the queue.
input: Kindly identify the class of O=C(NCCCc1ccc(Cl)cc1Cl)c1ccccc1C(F)(F)F [Compound 4-7] .
output: class 0

====

Listed below: Selectivity B/A values for each entry.
Biological target: Ascaris suum succinate-ubiquinone reductase (mitochondrial complex II) (Ascaris suum, UniProt O44074+P92506+P92507)
Construct: from tissue; host or cells: mitochondria from adult Ascaris suum muscle
Test: In vitro inhibitory activity on Ascaris suum succinate-ubiquinone reductase (mitochondrial complex II)
Assay type: biochemical
Details: porcine IC50 (B) / Ascaris suum IC50 (A)

input: What value of measured Selectivity B/A is listed for O=C(NCCc1ccccc1)c1ccccc1C(F)(F)F [Compound 1-111] ?
output: >6870

====

Target: Ascaris suum succinate-ubiquinone reductase (mitochondrial complex II) (Ascaris suum, UniProt O44074+P92506+P92507)
Construct: from tissue; host or cells: mitochondria from adult Ascaris suum muscle
Experiment: In vitro inhibitory activity on Ascaris suum succinate-ubiquinone reductase (mitochondrial complex II)
Type: biochemical
Conditions: porcine IC50 (B) / Ascaris suum IC50 (A)
RESULT_TYPE: Selectivity B/A

Worked cases, answers included:
COMPOUND	Selectivity B/A
O=C(NCCCOc1ccc(Cl)cc1Cl)c1ccccc1C(F)(F)F	>10770
Cc1ccc(SCCCNC(=O)c2ccccc2C(F)(F)F)c(C)c1	>14830
O=C(NCCc1c(Cl)cc(C(F)(F)F)cc1Cl)c1ccccc1C(F)(F)F	>2460
CC(NC(=O)c1ccccc1C(F)(F)F)c1ccc(Cl)cc1 (centres unmarked)	>2360

From here, focus on the item given below.
input: Please look up its Selectivity B/A: CC(Cc1ccc(Cl)c(Cl)c1)NC(=O)c1ccccc1C(F)(F)F (centres unmarked)
output: >18800

====

Target: Porcine succinate-ubiquinone reductase (mitochondrial complex II) (Sus scrofa, UniProt A5GZW8+D0VWV4+Q007T0)
Construct: from tissue; host or cells: mitochondria from porcine heart muscle
Assay: In vitro inhibitory activity on porcine succinate-ubiquinone reductase (mitochondrial complex II)
Format: biochemical, pig
Conditions: mitochondria from porcine heart muscle; read-out: Porcine mitochondria IC50 value (B)
RESULT_TYPE: pIC50
The meaning of pIC50 here: minus log10 of the concentration in molar units.

SMILES_CODE	pIC50
O=C(NCCCc1ccc(Cl)cc1Cl)c1ccccc1C(F)(F)F	3.99

// next entry
input: May I ask what pIC50 has been recorded for CC(C)(C)c1ccc(CNC(=O)c2ccccc2C(F)(F)F)cc1 ?
output: 3.95

====

Target: Porcine succinate-ubiquinone reductase (mitochondrial complex II) (Sus scrofa, UniProt A5GZW8+D0VWV4+Q007T0)
Construct: from tissue; host or cells: mitochondria from porcine heart muscle
Test: In vitro inhibitory activity on porcine succinate-ubiquinone reductase (mitochondrial complex II)
Type: biochemical, pig
Conditions: at 90 μM; porcine heart muscle mitochondria
RESULT_TYPE: Porcine mitochondria inhibition at 90 μM

Completed entries (count: 4):
COMPOUND	RESULT_TYPE	REPORTED_VALUE
O=C(NCCc1ccccc1)c1ccccc1C(F)(F)F	Porcine mitochondria inhibition at 90 μM	no inhibition at 90 μM
O=C(NCc1ccc(Cl)cc1Cl)c1ccccc1C(F)(F)F	Porcine mitochondria inhibition at 90 μM	10% at 90 μM
CC(NC(=O)c1ccccc1C(F)(F)F)c1ccc(Cl)cc1Cl (centres unmarked)	Porcine mitochondria inhibition at 90 μM	no inhibition at 90 μM
O=C(NCCc1ccc(Cl)cc1Cl)c1ccccc1C(F)(F)F	Porcine mitochondria inhibition at 90 μM	no inhibition at 90 μM

Moving on to the next compound.
input: # Porcine mitochondria inhibition at 90 μM lookup, item O=C(NC(c1ccc(Cl)cc1)C1CC1)c1ccccc1C(F)(F)F (centres unmarked)
output: no inhibition at 90 μM

====

Catalogue of IC50 readings, one per entry.
Target: Ascaris suum succinate-ubiquinone reductase (mitochondrial complex II) (Ascaris suum, UniProt O44074+P92506+P92507)
Construct: from tissue; host or cells: mitochondria from adult Ascaris suum muscle
Experiment: In vitro inhibitory activity on Ascaris suum succinate-ubiquinone reductase (mitochondrial complex II)
Type: biochemical
The reply should contain only the number, in nM.

Here is how some compounds turned out for IC50.
COMPOUND	MEASUREMENT_UNIT	IC50
O=C(NCCc1c(Cl)cc(C(F)(F)F)cc1Cl)c1ccccc1C(F)(F)F	nM	4.07
Cc1ccc(OCCNC(=O)c2ccccc2C(F)(F)F)c(C)c1	nM	1.98
CC(C)(Cc1ccc(Cl)c(Cl)c1)NC(=O)c1ccccc1C(F)(F)F	nM	12
CC(CCc1ccc(Cl)cc1Cl)NC(=O)c1ccccc1C(F)(F)F (centres unmarked)	nM	2.61

Consider now this further compound.
input: Which IC50 reading was recorded for the compound CC(Cc1ccc(F)cc1F)NC(=O)c1ccccc1C(F)(F)F (centres unmarked) ?
output: 9
